biological target: Matrix metalloproteinase-9 (Homo sapiens, UniProt P14780); assay: Inhibition of recombinant human MMP9 using thiopeptide as substrate preincubated for 30 mins followed by substrate addition and measured every min for 20 mins by colorimetric assay
Sequence (P14780 whole entry): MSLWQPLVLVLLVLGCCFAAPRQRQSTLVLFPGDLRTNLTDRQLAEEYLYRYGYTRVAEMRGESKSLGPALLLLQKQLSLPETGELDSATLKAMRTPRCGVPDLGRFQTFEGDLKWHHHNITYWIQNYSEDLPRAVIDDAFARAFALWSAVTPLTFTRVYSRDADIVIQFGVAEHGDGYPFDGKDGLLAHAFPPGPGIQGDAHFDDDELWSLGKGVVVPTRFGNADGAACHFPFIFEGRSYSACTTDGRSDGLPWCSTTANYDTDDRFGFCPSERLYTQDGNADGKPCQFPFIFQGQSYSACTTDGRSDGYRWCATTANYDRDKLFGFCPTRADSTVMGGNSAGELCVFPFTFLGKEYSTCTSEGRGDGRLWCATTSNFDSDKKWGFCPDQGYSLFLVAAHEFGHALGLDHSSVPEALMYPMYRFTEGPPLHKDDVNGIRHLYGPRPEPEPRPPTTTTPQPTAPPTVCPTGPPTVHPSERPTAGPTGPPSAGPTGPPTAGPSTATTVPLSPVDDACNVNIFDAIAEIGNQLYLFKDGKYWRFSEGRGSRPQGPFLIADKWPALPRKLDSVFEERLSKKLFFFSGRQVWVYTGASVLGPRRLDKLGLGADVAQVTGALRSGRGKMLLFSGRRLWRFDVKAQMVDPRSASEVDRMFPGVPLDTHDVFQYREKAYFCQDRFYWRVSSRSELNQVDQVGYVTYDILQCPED
pIC50: −log10 of the molar value.

- molecule: "O=C(CCCCN1C(=O)c2ccccc2S1(=O)=O)Nc1ccc(O)c2ncccc12"
  tgt: "Matrix metalloproteinase-9 (Homo sapiens, UniProt P14780)"
  pIC50: "< 5.00"
- molecule: "Cc1nc2ccccc2n1CCCC(=O)Nc1ccc(O)c2ncccc12"
  tgt: "Matrix metalloproteinase-9 (Homo sapiens, UniProt P14780)"
  pIC50: "< 5.00"
- molecule: "O=C(CCCNCc1cc(Cl)c2cccnc2c1O)Nc1ccccc1"
  tgt: "Matrix metalloproteinase-9 (Homo sapiens, UniProt P14780)"
  pIC50: 5.49
- molecule: "O=C(CCCCCNCc1ccc(O)c2ncccc12)Nc1ccccc1"
  tgt: "Matrix metalloproteinase-9 (Homo sapiens, UniProt P14780)"
  pIC50: 5.22
- molecule: "O=C(CCCN1C(=O)c2ccccc2S1(=O)=O)Nc1ccc(O)c2ncccc12"
  tgt: "Matrix metalloproteinase-9 (Homo sapiens, UniProt P14780)"
  pIC50: "< 5.00"
- molecule: "O=C(CNCc1ccc(O)c2ncccc12)Nc1ccccc1"
  tgt: "Matrix metalloproteinase-9 (Homo sapiens, UniProt P14780)"
  pIC50: "< 5.00"
- molecule: "Cc1nc2ccccc2n1CCCCCC(=O)Nc1ccc(O)c2ncccc12"
  tgt: "Matrix metalloproteinase-9 (Homo sapiens, UniProt P14780)"
  pIC50: "< 5.00"
- molecule: "CN(CCC(=O)Nc1ccc(O)c2ncccc12)c1ccccc1"
  tgt: "Matrix metalloproteinase-9 (Homo sapiens, UniProt P14780)"
  pIC50: "< 5.00"
- molecule: "O=C(CNCc1cc(Cl)c2cccnc2c1O)Nc1ccccc1"
  tgt: "Matrix metalloproteinase-9 (Homo sapiens, UniProt P14780)"
  pIC50: 5.68
- molecule: "CN(CCCCC(=O)Nc1ccc(O)c2ncccc12)c1ccccc1"
  tgt: "Matrix metalloproteinase-9 (Homo sapiens, UniProt P14780)"
  pIC50: "< 5.00"
- molecule: "Cc1[nH]c2ccccc2c1CCNC(=O)CCCCCNCc1cc(Cl)c2cccnc2c1O"
  tgt: "Matrix metalloproteinase-9 (Homo sapiens, UniProt P14780)"
  pIC50: 5.77

---

target: Matrix metalloproteinase-9 (Homo sapiens); test: Inhibition of recombinant human MMP9 using thiopeptide as substrate preincubated for 30 mins followed by substrate addition and measured every min for 20 mins by colorimetric assay
pIC50: −log10 of the molar value.

- molecule: "Cc1[nH]c2ccccc2c1CCNC(=O)CCNCc1cc(Cl)c2cccnc2c1O"
  limit qualifier: "<"
  pIC50: 5.00
- molecule: "Cc1nc2ccccc2n1CCCCC(=O)Nc1ccc(O)c2ncccc12"
  limit qualifier: "<"
  pIC50: 5.00
- molecule: "Cc1[nH]c2ccccc2c1CCNC(=O)CCCNCc1cc(Cl)c2cccnc2c1O"
  limit qualifier: "="
  pIC50: 5.89
- molecule: "O=C(CCCCCNCc1cc(Cl)c2cccnc2c1O)Nc1ccccc1"
  limit qualifier: "="
  pIC50: 6.18
- molecule: "O=C(CCCNCc1ccc(O)c2ncccc12)Nc1ccccc1"
  limit qualifier: "="
  pIC50: 5.29
- molecule: "O=C(CCCCCCNCc1ccc(O)c2ncccc12)Nc1ccccc1"
  limit qualifier: "<"
  pIC50: 5.00
- molecule: "Cc1[nH]c2ccccc2c1CCNC(=O)CCCCNCc1ccc(O)c2ncccc12"
  limit qualifier: "="
  pIC50: 5.28
- molecule: "CN(CCCC(=O)Nc1ccc(O)c2ncccc12)c1ccccc1"
  limit qualifier: "<"
  pIC50: 5.00
- molecule: "Cc1[nH]c2ccccc2c1CCNC(=O)CCNCc1ccc(O)c2ncccc12"
  limit qualifier: "<"
  pIC50: 5.00
- molecule: "O=C(CCNCc1cc(Cl)c2cccnc2c1O)Nc1ccccc1"
  limit qualifier: "="
  pIC50: 5.46
- molecule: "Cc1[nH]c2ccccc2c1CCNC(=O)CNCc1cc(Cl)c2cccnc2c1O"
  limit qualifier: "<"
  pIC50: 5.00
